Assay: in vivo
Details: mouse, 1 mg, Cholic acid 7-sulfate concentration (mean ± SEM), Blood, HFD-fed mice, acute cholic acid 7-sulfate treatment
Attribute measured: concentration at 15 min (nM)
Write down the numeric answer in nM and omit the unit.

What measured concentration at 15 min goes with C[C@H](CCC(=O)O)[C@H]1CC[C@H]2[C@@H]3[C@H](OS(=O)(=O)O)C[C@@H]4C[C@H](O)CC[C@]4(C)[C@H]3C[C@H](O)[C@]12C [CA7S, cholic acid 7-sulfate] ?
495

###

Assay: in vivo
Settings: mouse, 1 mg, cholic acid 7-sulfate in the cecum, dosing with 1 mg
Attribute measured: concentration at 15 min

Tell me the measured concentration at 15 min of C[C@H](CCC(=O)O)[C@H]1CC[C@H]2[C@@H]3[C@H](OS(=O)(=O)O)C[C@@H]4C[C@H](O)CC[C@]4(C)[C@H]3C[C@H](O)[C@]12C [CA7S, cholic acid 7-sulfate] , please.
~2500 µM

Data provenance: patent US20230174988A1
